Data provenance is a melting point compilation (Tetko et al.; mined from patent text by program, amines drawn as free bases though some values may be those of a salt).

ENDPOINT NAME: melting point

COc1ccc(C2=NC(C#N)CN2c2ccc(OCc3ccccc3)cc2)cc1 (stereo unspecified) | 121 to 122 °C
COc1cc(CO)cc2c1OCO2 | 66 to 67 °C
Cc1ccnc2c1C(=O)CC(c1sc(Cl)cc1Cl)C2 (stereo unspecified) | 109 to 111 °C

According to the records, this molecule O=C(O)c1cn(-c2cccc(F)c2)c2cc(Cl)ccc2c1=O displays melting point of 284 to 286 °C

According to the records, this molecule CCc1nc(OC)c(NC(=O)N2CCN(c3cccc(O)c3)CC2)cc1C displays melting point of 168 to 170 °C

According to the records, this molecule [N-]=[N+]=NC1CC(n2cnc3c(NCC4CC4)nc(N)nc32)OC1CO (stereo unspecified) displays melting point of 104 to 106 °C

According to the records, this molecule COc1ccc2c(c1)/C(=C/C#N)CC2 displays melting point of 95 to 96 °C

According to the records, this molecule Nc1nc(S(N)(=O)=O)c2[nH]cnc2n1 displays melting point of > 250 °C

According to the records, this molecule CCOC(=O)Cc1c(-c2ccc(OC)cc2)sc2c1c(=O)c(C(=O)OCC)cn2Cc1ccccc1F displays melting point of 199 to 201 °C

According to the records, this molecule CCOC(=O)C1=COc2cc(C(C)=O)ccc2O1 displays melting point of 122 °C

According to the records, this molecule COc1ccc(CONS(=O)(=O)c2ccc(C)cc2)cc1 displays melting point of 109 to 111 °C

* * *

Reported melting point values for the following compounds.

Cn1nc(C#N)c2ccccc21 | 73 °C
CCCCn1c(=O)cc(NN)n(Cc2ccc(OC)cc2)c1=O | 167 to 170 °C
Cc1cnc(NCCc2ccccn2)c(=O)n1NC(=O)CCc1cc(Cl)ccc1Cl | 188 to 191 °C
Cn1c(=O)ccc2cnc(N)nc21 | 237 to 253 °C
CNC(=O)n1sc(N(C)C)nc1=O | 164 °C
COc1ccc2c(c1)c(-c1cc3nccnc3[nH]1)cn2CCCN | 95 to 100 °C
COCC(C)N(C(=O)CCl)c1c(C)cccc1C (configuration not stated) | 44 to 46 °C
O=c1[nH]c2ccc(Br)cc2cc1Cc1ccccc1 | 263 °C

According to the records, this compound CON=C1CCCc2cc(OCCCOc3c(Cl)cc(OCC=C(Cl)Cl)cc3Cl)ccc21 displays melting point of 75 to 77 °C

According to the records, this compound CC(=O)C(=O)N[C@H](CO[N+](=O)[O-])c1ccccc1 displays melting point of 76 to 77 °C

According to the records, this compound c1cc(-c2ccnc3nccn23)ccn1 displays melting point of 244 to 245 °C

According to the records, this compound CC[C@@H]1N(c2ccc(C#N)c(Cl)c2)C(=O)C[C@@]1(O)C1CC1 displays melting point of 128 to 132 °C

According to the records, this compound CN1C(=O)CCCc2ccc(NC(=O)c3ccc(C(=O)O)cc3)cc21 displays melting point of > 270 °C

According to the records, this compound COc1ccc(CN(C)CCCc2ccc(NC(=O)c3[nH]c4ccccc4c3C(=O)c3ccccc3)cc2)cc1OC displays melting point of 156 to 161 °C

According to the records, this compound CCCCCCCCCCNC(=O)c1cc(C(=O)NCCCCCCCCCC)cc(N(CCCC(=O)O)CCCC(=O)O)c1 displays melting point of 154 to 156 °C

According to the records, this compound N#CC(=CNc1ccccc1)Cc1ccc2c(c1)OCO2 displays melting point of 150 to 151 °C

According to the records, this compound COc1ccc2c(c1)CCN1C(=O)[C@H]3CCCN(S(C)(=O)=O)[C@H]3C[C@@H]21 displays melting point of 138 to 140 °C

* * *

ENDPOINT NAME: melting point

Below, 3 compounds whose answers are already recorded.
CC(=O)Nc1cc(Oc2ccc3c(c2)CCN3C(=O)Nc2ccc(OC(C)(C)C(=O)O)c(C(F)(F)F)c2)ncn1 | 219 to 220 °C
COc1cc(NC(=O)CCCCCN2CC(C)NC(C)C2)c2nccc(C)c2c1 (centres undefined) | 94 to 96 °C
CCCOc1ccc(S(C)(=O)=O)cc1-c1nc2c(CC)n(CC3CC3)nc2c(=O)[nH]1 | 233 to 234 °C

Could you now consider this next compound?
According to the records, this compound COc1ccc(CN(C)CCc2ccc(NC(=O)c3cccc4c(=O)c5cccc([N+](=O)[O-])c5[nH]c34)cc2)cc1OC displays melting point of 197 °C

* * *

Reported melting point values for the following molecules.

Clc1ccc(Nc2ncnc(-c3ccnc(N4CCCCC4)c3)n2)cc1 | 205 to 206 °C
CCOC(=O)C(C)n1cc(-c2ccc(Oc3ccccc3)cc2)c2c(N)ncnc21 (stereo unspecified) | 139 to 140 °C
O=C(NCC12CC3CC(CC(C3)C1)C2)c1c(Cl)ccc2nc(N3C[C@@H]4C(C(=O)O)[C@@H]4C3)ccc12 (stereo partly specified) | 175 to 180 °C
Cc1ccc([N+](=O)[O-])cc1NC(N)=S | 164 to 166 °C
COc1nc(OC)c2cc(CBr)ccc2n1 | 138 to 143 °C
CCOC(=O)c1cn2c3c(cc(I)cc3c1=O)N(C)C(=O)C2 | 278 to 283 °C
O=C(CC(F)=C(F)F)Nc1cccc(C(=O)O)c1 | 252 to 255 °C
CCOC(=O)c1nc2cc(Br)c(Br)cc2[nH]c1=O | 235 to 236 °C

According to the records, this molecule CCNC(=N)NC(=O)Cc1ccccc1OC displays melting point of 127 to 128 °C

According to the records, this molecule N#Cc1cnc2c(oc3ccccc32)c1Oc1ccc(Cl)cc1F displays melting point of 138 to 140 °C

According to the records, this molecule CCn1c(=O)[nH]c2cc(NC(C)=O)ccc21 displays melting point of 247 to 249 °C

* * *

Reported melting point values for the following compounds.

Below, 3 compounds whose answers are already recorded.
CC(c1ccc2ccccc2c1)N(O)C(=O)NO (stereo not given) | 148 to 150 °C
COc1ccc([C@@H]2CCc3cc(OC)ccc3[C@@H]2Cn2ccnc2)cc1 (relative stereo) | 114 °C
Cc1n[nH]c(COc2nn3c(-c4ccccc4)nnc3cc2-c2ccccc2)n1 | 233 to 235 °C

Could you now consider this next compound?
According to the records, this compound CC1(c2ccc(O)cc2)Cc2cc(OCC(=O)O)c(Cl)c(Cl)c2C1=O (stereo not given) displays melting point of 220 to 222 °C

* * *

ENDPOINT NAME: melting point

Below, 4 molecules whose answers are already recorded.
N#CC1=C(c2ccccc2)Nc2n[nH]cc2C1c1cccc2c1OCCC2 (stereo unspecified) | 255 °C
C=CCc1c(O)ccc2c(=O)cc(C(=O)OCC)oc12 | 164 to 165 °C
CCCCN(CCCC)c1ccc(C=CC2=CC(=CC=CC3=C(C#N)C(=C(C#N)C#N)OC3(c3ccccc3)C(F)(F)F)CC(C)(C)C2)c(OC)c1 (stereo unspecified) | 164 to 166 °C
O=c1c(O)c(-c2nnc(Cc3ccc(F)cc3)o2)[nH]c2ccccc12 | > 300 °C

According to the records, this molecule CS(=O)(=O)c1cccc(/C=C/C2=CCN(Cc3ccccc3)CC2)c1 displays melting point of 150 to 152 °C

According to the records, this molecule CSc1ccc(C(=O)CC(=O)C(F)F)cc1 displays melting point of 68 to 70 °C

According to the records, this molecule Cc1cc(-c2cc(C(F)F)n3ncc(I)c3n2)ccc1Cl displays melting point of 144 °C

According to the records, this molecule CC(C)C(C(=O)O)N1C(=O)C2C3C=CC(CC3)C2C1=O (stereo unspecified) displays melting point of 156 °C

* * *

Reported melting point values for the following molecules.

O=C1c2ccccc2C(=O)N1Nc1ccc(/C=C/C(c2cc(Cl)c(Cl)c(Cl)c2)C(F)(F)F)cc1 (centres undefined) | 187 to 189 °C
Fc1ccc2[nH]cc(CC3C=CCN(Cc4ccccc4)C3)c2c1 (centres undefined) | 133 to 136 °C
COc1ccc(NC(=O)Nc2ccccc2)cc1NC(=S)Nc1cc(Cl)cc(Cl)c1 | 218 to 219 °C
CCOC(=O)c1c(CC(C)C)nc2c(C(F)(F)F)cccc2c1O | 100 °C
COc1cc(C(C)=O)ccc1OCCCN1CCN(c2n[nH]c3cc(Cl)ccc23)CC1 | 132 to 134 °C

According to the records, this molecule CC1(C)CCc2c(sc3cc(OS(=O)(=O)Cc4ccccc4OC(F)(F)F)ccc3c2=O)C1 displays melting point of 249 °C

According to the records, this molecule CCN1CC=C(CC(=O)NC2(c3ccc(C(F)(F)F)cc3)C(=O)Nc3cc(Cl)cc(Cl)c32)CC1 (single isomer, unassigned; (+)) displays melting point of 155 to 156 °C

According to the records, this molecule O=[N+]([O-])/C=C/c1c2n(c3ccccc13)CCNCC2 displays melting point of 225 to 226 °C

According to the records, this molecule C[C@]12CC[C@@H]3c4ccc(OCC(=O)O)cc4CC[C@H]3[C@@H]1CCC2=O displays melting point of 205 to 208 °C
